system-under-test: hNaV1.7 (Homo sapiens)
Construct: expressed in transfected cells
assay-procedure: Patch voltage clamp electrophysiology (EP), Syncropatch 384PE, Nav1.7 in CHO cells
Format: cell-based
test-conditions: holding potential −50 mV, inhibition based on 7.5 min compound incubation, read-out: hNaV1.7 EP_SP
observation-type: pIC50
Numbers only, as −log10 of the molar value.

The following molecules have reported results that may help.
{"molecule": "O=C(NS(=O)(=O)[C@@H]1C[C@H]1c1ccccc1)c1cc(Cl)c(OCC2CCCC2)cc1F (relative stereo) [Example 284]", "pIC50": 6.92}
{"molecule": "CN1CC(OC2CCN(S(=O)(=O)NC(=O)c3cc(Cl)c(OCC4CCCC4)cc3F)CC2)C1 [Example 1]", "pIC50": 6.96}
{"molecule": "O=C(NS(=O)(=O)CCCOc1cccc(C(F)(F)F)c1)c1cc(Cl)c(OCC2CCCC2)cc1F [Example 253]", "pIC50": 6.38}
{"molecule": "CO[C@H]1CC[C@H](S(=O)(=O)NC(=O)c2cc(Cl)c(OCC3CCCC3)cc2F)CC1 [Example 86]", "pIC50": 7.00}

List pIC50 for every entry below, keeping the order given.
1. CN1CC(OC2CCN(S(=O)(=O)NC(=O)c3cc(C4CCC4)c(OCC4CCCC4)cc3F)CC2)C1 [Example 7, 2,2,2-trifluoroacetate]
2. O=C(NS(=O)(=O)N1CCC(OC2CN(C3COC3)C2)CC1)c1cc(Cl)c(OCC2CCCC2)cc1F [Example 11]
3. CC(C)COc1cc(F)c(C(=O)NS(=O)(=O)N2CCC(OC3CN(C)C3)CC2)cc1C1CC1 [Example 237, formic acid]

1: 8.10; 2: 6.89; 3: 7.30

---

system-under-test: hNaV1.7 (Homo sapiens, UniProt Q15858)
Construct: expressed in transfected cells
Sequence (Q15858 1-1977 isoform Q15858-3): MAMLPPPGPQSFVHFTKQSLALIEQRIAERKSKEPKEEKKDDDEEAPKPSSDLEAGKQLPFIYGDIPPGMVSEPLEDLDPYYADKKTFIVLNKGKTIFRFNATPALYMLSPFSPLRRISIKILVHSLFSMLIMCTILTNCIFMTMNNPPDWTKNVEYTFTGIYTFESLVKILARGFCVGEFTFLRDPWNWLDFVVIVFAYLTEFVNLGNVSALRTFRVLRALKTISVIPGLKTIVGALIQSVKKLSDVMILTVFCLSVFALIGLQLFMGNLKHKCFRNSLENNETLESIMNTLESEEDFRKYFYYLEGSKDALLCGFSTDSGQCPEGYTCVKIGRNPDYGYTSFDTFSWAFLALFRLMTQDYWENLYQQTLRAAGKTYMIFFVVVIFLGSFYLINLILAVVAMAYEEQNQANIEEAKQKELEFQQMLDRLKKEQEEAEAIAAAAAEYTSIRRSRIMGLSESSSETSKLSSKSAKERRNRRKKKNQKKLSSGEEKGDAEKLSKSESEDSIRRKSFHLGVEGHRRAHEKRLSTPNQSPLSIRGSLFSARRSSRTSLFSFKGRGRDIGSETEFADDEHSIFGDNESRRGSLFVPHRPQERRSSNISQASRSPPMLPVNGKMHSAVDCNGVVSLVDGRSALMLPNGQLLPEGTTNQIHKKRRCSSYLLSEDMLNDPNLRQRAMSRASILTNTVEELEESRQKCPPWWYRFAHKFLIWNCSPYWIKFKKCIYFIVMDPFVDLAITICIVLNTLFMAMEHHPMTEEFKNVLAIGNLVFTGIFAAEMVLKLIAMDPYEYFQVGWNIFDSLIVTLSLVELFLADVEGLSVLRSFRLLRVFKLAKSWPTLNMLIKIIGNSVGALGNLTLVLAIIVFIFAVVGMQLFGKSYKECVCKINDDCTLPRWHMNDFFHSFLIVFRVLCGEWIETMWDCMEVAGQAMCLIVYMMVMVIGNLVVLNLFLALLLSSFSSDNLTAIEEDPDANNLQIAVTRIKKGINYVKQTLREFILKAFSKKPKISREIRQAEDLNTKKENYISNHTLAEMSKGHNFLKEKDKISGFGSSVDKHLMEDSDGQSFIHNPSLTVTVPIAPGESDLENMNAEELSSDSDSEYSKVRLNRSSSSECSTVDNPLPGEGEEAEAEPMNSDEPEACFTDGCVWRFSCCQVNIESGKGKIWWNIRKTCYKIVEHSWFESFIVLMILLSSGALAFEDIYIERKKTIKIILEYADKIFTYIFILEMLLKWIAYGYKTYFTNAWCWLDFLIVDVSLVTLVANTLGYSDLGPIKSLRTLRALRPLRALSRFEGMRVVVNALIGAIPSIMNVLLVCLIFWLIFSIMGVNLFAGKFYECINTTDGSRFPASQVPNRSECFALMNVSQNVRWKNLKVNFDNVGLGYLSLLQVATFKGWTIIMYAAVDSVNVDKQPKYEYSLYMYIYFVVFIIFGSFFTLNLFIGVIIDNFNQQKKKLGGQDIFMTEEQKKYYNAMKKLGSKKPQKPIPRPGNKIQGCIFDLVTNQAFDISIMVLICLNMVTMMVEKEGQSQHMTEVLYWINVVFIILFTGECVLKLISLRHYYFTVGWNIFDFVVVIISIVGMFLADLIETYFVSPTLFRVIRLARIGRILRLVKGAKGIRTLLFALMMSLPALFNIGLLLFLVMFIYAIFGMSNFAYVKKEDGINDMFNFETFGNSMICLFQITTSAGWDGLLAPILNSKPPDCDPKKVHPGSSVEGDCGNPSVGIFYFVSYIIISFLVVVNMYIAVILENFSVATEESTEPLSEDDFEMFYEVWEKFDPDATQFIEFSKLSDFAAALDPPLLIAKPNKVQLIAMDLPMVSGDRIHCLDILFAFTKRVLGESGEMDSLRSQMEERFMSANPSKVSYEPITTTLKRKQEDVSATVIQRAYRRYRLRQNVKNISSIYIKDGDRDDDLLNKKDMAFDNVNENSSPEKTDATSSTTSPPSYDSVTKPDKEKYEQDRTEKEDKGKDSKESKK
assay-procedure: Patch voltage clamp electrophysiology (EP), Syncropatch 384PE, Nav1.7 in CHO cells
Assay type: cell-based
test-conditions: holding potential −50 mV, inhibition based on 7.5 min compound incubation, read-out: hNaV1.7 EP_SP
Friendly reminder: IC50 below 0.1 µM is satisfied, at or above is not satisfied.

# example entries with known answers
{"compound": "CCc1ccc(S(=O)(=O)NC(=O)c2cc(Cl)c(OCC3CCCC3)cc2F)cc1", "group": "not satisfied"}
{"compound": "O=C(NS(=O)(=O)N1CCCC12CC2)c1cc(Cl)c(OCC2CCCC2)cc1F", "group": "satisfied"}

Could you please tell me whether IC50 recorded for CN1CC(OC2CCN(S(=O)(=O)NC(=O)c3cc(C4CC4)c(OCC4CCCC4)cc3F)CC2)C1 is less than 0.1 µM?
satisfied

Also, NC[C@@H]1CCN(S(=O)(=O)NC(=O)c2cc(Cl)c(OCC3CCCC3)cc2F)C1 [Example 232, 2,2,2-trifluoroacetate] please.
not satisfied

Also, O=C(NS(=O)(=O)c1ccc(OCc2ccccc2)cc1)c1cc(C2CC2)c(OCC2CCCC2)cc1F please.
satisfied

Also, O=C(NS(=O)(=O)c1ccc2c(c1)NCCC2)c1cc(Cl)c(OCC2CCCC2)cc1F please.
not satisfied

---

system-under-test: hNaV1.7 (Homo sapiens, UniProt Q15858)
Construct: expressed in transfected cells
assay-procedure: Patch voltage clamp electrophysiology (EP), Syncropatch 384PE, Nav1.7 in CHO cells
Format: cell-based
test-conditions: holding potential −50 mV, inhibition based on 7.5 min compound incubation, read-out: hNaV1.7 EP_SP
Structures can show the parent of a compound that is named as a salt.
observation-type: IC50 (nM)
Numbers only, in nM.

The following compounds have reported results that may help.
{"compound": "COC1CCN(S(=O)(=O)NC(=O)c2cc(Cl)c(OCC3CCCC3)cc2F)CC1", "system-under-test": "hNaV1.7 (Homo sapiens, UniProt Q15858)", "IC50, nM": 49}
{"compound": "CN(C)[C@H]1CCCC[C@@H]1Oc1ccc(S(=O)(=O)Nc2ccc(SCc3ccccc3Cl)cn2)c(F)c1", "system-under-test": "hNaV1.7 (Homo sapiens, UniProt Q15858)", "IC50, nM": 730}
{"compound": "O=S(=O)(Nc1noc2cc(OCC3CCCC3)c(C3CC3)cc12)N1CCC(O[C@@H]2CCNC2)CC1 (single isomer, unassigned) [Example 91, 2,2,2-trifluoroacetate]", "system-under-test": "hNaV1.7 (Homo sapiens, UniProt Q15858)", "IC50, nM": 790}

List IC50 for every entry below, keeping the order given.
1. O=C(NS(=O)(=O)N1CC2(CCO2)C1)c1cc(Cl)c(OCC2CCCC2)cc1F
2. C[C@H]1Cc2cc(S(=O)(=O)NC(=O)c3cc(Cl)c(OCC4CCCC4)cc3F)ccc2O1

1: 210; 2: 380

List IC50 for every entry below, keeping the order given.
1. COc1cccc(COc2ccc(S(=O)(=O)NC(=O)c3cc(Cl)c(OCC4CCCC4)cc3F)cc2)c1
2. CN(C)[C@H]1CCCC[C@@H]1Nc1ccc(S(=O)(=O)NC(=O)c2ccc(OCC3CCCC3)c(Cl)c2)c(F)c1 [Example 57, formate]

[100, 540]

---

Give pIC50 for every item shown.
system-under-test: hNaV1.7 (Homo sapiens)
Construct: expressed in transfected cells
assay-procedure: Patch voltage clamp electrophysiology (EP), Syncropatch 384PE, Nav1.7 in CHO cells
Format: cell-based
test-conditions: holding potential −50 mV, inhibition based on 7.5 min compound incubation, read-out: hNaV1.7 EP_SP
Answers are plain numbers, as −log10 of the molar value.

The following compounds have reported results that may help.
{"smi": "O=C(NS(=O)(=O)c1ccc(OCc2cncnc2)cc1)c1cc(Cl)c(OCC2CCCC2)cc1F", "system-under-test": "hNaV1.7 (Homo sapiens)", "pIC50": 6.24}
{"smi": "CC(C)/C=C/c1cc2cnc(NS(=O)(=O)c3cc(Cl)c(N[C@H]4CCCC[C@@H]4N(C)C)cc3F)cc2n1C", "system-under-test": "hNaV1.7 (Homo sapiens)", "pIC50": 6.19}
{"smi": "CN(C)[C@H]1CCCC[C@@H]1Oc1ccc(S(=O)(=O)Nc2nc3cccc(Cl)c3s2)c(F)c1", "system-under-test": "hNaV1.7 (Homo sapiens)", "pIC50": 6.37}

Next up:
Entry Cn1cncc1COc1ccc(S(=O)(=O)NC(=O)c2cc(Cl)c(OCC3CCCC3)cc2F)cc1 , system hNaV1.7 (Homo sapiens): what pIC50 was measured?
7.55

---

system-under-test: hNaV1.7 (Homo sapiens, UniProt Q15858)
Construct: expressed in transfected cells
assay-procedure: Patch voltage clamp electrophysiology (EP), Syncropatch 384PE, Nav1.7 in CHO cells
Assay type: cell-based
test-conditions: holding potential −50 mV, inhibition based on 7.5 min compound incubation, read-out: hNaV1.7 EP_SP
We'd kindly ask you to apply these IC50 classes: one (below 100 nM), two (100 nM to below 400 nM), three (400 nM or more)

{"compound": "O=C(NS(=O)(=O)N1C[C@@H]2CC[C@@H](C2)C1)c1cc(Cl)c(OCC2CCCC2)cc1F", "group": "one"}

Entry O=C(NS(=O)(=O)c1ccc(OCc2cccnc2)cc1)c1cc(Cl)c(OCC2CCCC2)cc1F belongs to which category?
one

Also, COc1ccccc1-n1cc(S(=O)(=O)NC(=O)c2cc(Cl)c(OCC3CCCC3)cc2F)cn1 please.
two

---

Give IC50 for every item shown.
system-under-test: hNaV1.7 (Homo sapiens)
Construct: expressed in transfected cells
assay-procedure: Patch voltage clamp electrophysiology (EP), Syncropatch 384PE, Nav1.7 in CHO cells
Format: cell-based
test-conditions: holding potential −50 mV, inhibition based on 7.5 min compound incubation, read-out: hNaV1.7 EP_SP
Numbers only, in nM.

The following compounds have reported results that may help.
{"compound": "O=C(NS(=O)(=O)c1ccc2ccccc2c1F)c1cc(Cl)c(OCC2CCCC2)cc1F", "quantity-unit": "nM", "IC50": 960}
{"compound": "NCC1CN(S(=O)(=O)NC(=O)c2cc(C3CC3)c(OCC3CCCC3)cc2F)CCO1 (stereo not shown)", "quantity-unit": "nM", "IC50": 620}
{"compound": "CC(C)S(=O)(=O)NC(=O)c1cc(Cl)c(OCC2CCCC2)cc1F", "quantity-unit": "nM", "IC50": 52}

Next up:
What value of measured IC50 is listed for CN(C)[C@H]1CCCC[C@@H]1Oc1ccc(S(=O)(=O)Nc2nc3ccc(OCC4CCCC4)cc3s2)c(F)c1 ?
20

---

system-under-test: hNaV1.7 (Homo sapiens)
Construct: expressed in transfected cells
assay-procedure: Patch voltage clamp electrophysiology (EP), Syncropatch 384PE, Nav1.7 in CHO cells;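 note: Nav1.7 stably expressed from cDNA in CHO cells, holding potential of −50 mV kept for the entire experiment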
Assay type: cell-based
test-conditions: holding potential −50 mV, inhibition based on 7.5 min compound incubation, read-out: hNaV1.7 EP_SP
Give pIC50 for every item shown.
Numbers only, as −log10 of the molar value.

The following compounds have reported results that may help.
{"compound": "CN(C)[C@H]1CCCC[C@@H]1Nc1cc(F)c(S(=O)(=O)NC(=O)c2cc(C3CC3)c(OCC3CCCC3)cc2F)c(F)c1", "pIC50": 8.00}
{"compound": "CN1CC(OC2CCN(S(=O)(=O)NC(=O)c3cc(C4CC4)c(OCC4CC4)cc3F)CC2)C1", "pIC50": 7.23}
{"compound": "CN(C)[C@H]1CCCC[C@@H]1OC1CCN(S(=O)(=O)NC(=O)c2cc(C3CC3)c(OCC3CCCC3)cc2F)CC1", "pIC50": 6.85}
{"compound": "O=C(NS(=O)(=O)N1CCCC1)c1cc(Cl)c(OCC2CCCC2)cc1F", "pIC50": 8.04}
{"compound": "Cc1csc(S(=O)(=O)NC(=O)c2cc(Cl)c(OCC3CCCC3)cc2F)c1", "pIC50": 6.96}

List pIC50 for every entry below, keeping the order given.
1. Cn1ccnc1COc1ccc(S(=O)(=O)NC(=O)c2cc(Cl)c(OCC3CCCC3)cc2F)cc1
2. O=C(NS(=O)(=O)C1CC1)c1cc(Cl)c(OCC2CCCC2)cc1F
3. Cn1ncnc1COc1ccc(S(=O)(=O)NC(=O)c2cc(Cl)c(OCC3CCCC3)cc2F)cc1
4. O=C(NS(=O)(=O)c1ccc(OC2CCNC2)cc1)c1cc(Cl)c(OCC2CCCC2)cc1F (stereo not drawn)
5. O=C(NS(=O)(=O)N1CCC2CCNCC2C1)c1cc(Cl)c(OCC2CCCC2)cc1F (stereo not drawn)
6. O=C(NS(=O)(=O)c1ccc(OCc2ncccn2)cc1)c1cc(Cl)c(OCC2CCCC2)cc1F

[7.08, 8.00, 6.80, 6.62, 6.68, 6.64]

What value of measured pIC50 is listed for O=C(NS(=O)(=O)N1CCCc2cccnc21)c1cc(Cl)c(OCC2CCCC2)cc1F ?
6.96
